Molecular target: T1, TNFR1 (Homo sapiens, UniProt P19438)
T1 chain: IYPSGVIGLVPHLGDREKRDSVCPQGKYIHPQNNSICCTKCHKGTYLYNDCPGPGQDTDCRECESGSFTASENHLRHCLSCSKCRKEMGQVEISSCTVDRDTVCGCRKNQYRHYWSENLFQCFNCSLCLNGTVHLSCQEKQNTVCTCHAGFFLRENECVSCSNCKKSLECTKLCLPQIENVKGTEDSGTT
Experiment: yeast display SC50
quantity: apparent Kd (screen) (nM)

E36S (designed binder) MTLQELLREEALRRAEAEAFRYALELLAEKFPEQKSYLLDLAEEIESQIRSLSGVDVEDVRKFLDKEWAWVKELLAEHPAELAEVEAARAARLAELRAEVEAKVAA; 0.405

(I) A102T (designed binder) MTLQELLREEALRRAEAEAFRYALELLAEKFPEQKEYLLDLAEEIESQIRSLSGVDVEDVRKFLDKEWAWVKELLAEHPAELAEVEAARAARLAELRAEVETKVAA
(II) R21S (designed binder) MTLQELLREEALRRAEAEAFSYALELLAEKFPEQKEYLLDLAEEIESQIRSLSGVDVEDVRKFLDKEWAWVKELLAEHPAELAEVEAARAARLAELRAEVEAKVAA
// pick min by apparent Kd (screen): I , II Record your answer as the label of the chosen record.
II
